For each of the compounds below, state its MIC.
Test system: Staphylococcus aureus V41
Method: MIC, standard agar-dilution assay
Assay type: cell-based
Answer format: numeric, µg/mL implied, no suffix.

Task item: Which MIC reading was recorded for the compound CCCCCCCNC1(C)CC(OC2C(Oc3c4cc5cc3Oc3ccc(cc3Cl)C(O)C3NC(=O)C(NC(=O)C5NC(=O)C(CC(N)=O)NC(=O)C(NC(=O)C(CC(C)C)NC)C(O)c5ccc(c(Cl)c5)O4)c4ccc(O)c(c4)-c4c(O)cc(O)cc4C(C(=O)O)NC3=O)OC(CO)C(O)C2O)OC(C)C1O (stereo not drawn) ?
Reply: 0.5

Task item: Which MIC reading was recorded for the compound CCCCCCCNC1(C)CC(OC2C(Oc3c4cc5cc3Oc3ccc(cc3Cl)C(O)C(NC(=O)C(CC(C)C)N(C)CCCCCCC)C(=O)NC(CC(N)=O)C(=O)NC5C(=O)NC3C(=O)NC(C(=O)NC(C(=O)O)c5cc(O)cc(O)c5-c5cc3ccc5O)C(O)c3ccc(c(Cl)c3)O4)OC(CO)C(O)C2O)OC(C)C1O (stereo not drawn) ?
Reply: 1

Task item: Which MIC reading was recorded for the compound CCCCCCCCCCNC1(C)CC(OC2C(Oc3c4cc5cc3Oc3ccc(cc3Cl)C(O)C3NC(=O)C(NC(=O)C5NC(=O)C(CC(N)=O)NC(=O)C(NC(=O)C(CC(C)C)NC)C(O)c5ccc(c(Cl)c5)O4)c4ccc(O)c(c4)-c4c(O)cc(O)cc4C(C(=O)O)NC3=O)OC(CO)C(O)C2O)OC(C)C1O (stereo not drawn) ?
Reply: 0.25

###

For each of the compounds below, state its MIC.
Tested on: Staphylococcus epidermidis EPI1
Type: cell-based
Condition Parameters: agar dilution
Answer format: numeric, µg/mL implied, no suffix.

Task item: Which MIC reading was recorded for the compound CNC(CC(C)C)C(=O)NC1C(=O)NC(CC(N)=O)C(=O)NC2C(=O)NC3C(=O)NC(C(=O)NC(C(=O)O)c4cc(O)cc(O)c4-c4cc3ccc4O)C(O)c3ccc(c(Cl)c3)Oc3cc2cc(c3OC2OC(CO)C(O)C(O)C2OC2CC(C)(NCc3ccc(O)cc3)C(O)C(C)O2)Oc2ccc(cc2Cl)C1O (stereo not drawn) [Example 105, N^van --( -p-hydroxybenzyl)vancomycin] ?
Reply: 1

Task item: Which MIC reading was recorded for the compound CCCCCCCCCCNC1(C)CC(OC2C(Oc3c4cc5cc3Oc3ccc(cc3Cl)C(O)C3NC(=O)C(NC(=O)C5NC(=O)C(CC(N)=O)NC(=O)C(NC(=O)C(CC(C)C)NC)C(O)c5ccc(c(Cl)c5)O4)c4ccc(O)c(c4)-c4c(O)cc(O)cc4C(C(=O)O)NC3=O)OC(CO)C(O)C2O)OC(C)C1O (stereo not drawn) [Compound 2, N^van -(n-decyl)vancomycin] ?
Reply: 0.25

Task item: Which MIC reading was recorded for the compound CCCCCCCCN(C)C(CC(C)C)C(=O)NC1C(=O)NC(CC(N)=O)C(=O)NC2C(=O)NC3C(=O)NC(C(=O)NC(C(=O)O)c4cc(O)cc(O)c4-c4cc3ccc4O)C(O)c3ccc(c(Cl)c3)Oc3cc2cc(c3OC2OC(CO)C(O)C(O)C2OC2CC(C)(N)C(O)C(C)O2)Oc2ccc(cc2Cl)C1O (stereo not drawn) [Compound 8, N^leu --(n-octyl)vancomycin] ?
Reply: 2

###

For each of the compounds below, state its MIC.
Test system: Escherichia coli N10
Method: MIC, standard agar-dilution assay
Format: cell-based

Task item: Which MIC reading was recorded for the compound CCCCc1ccc(CNC2(C)CC(OC3C(Oc4c5cc6cc4Oc4ccc(cc4Cl)C(O)C4NC(=O)C(NC(=O)C6NC(=O)C(CC(N)=O)NC(=O)C(NC(=O)C(CC(C)C)NC)C(O)c6ccc(c(Cl)c6)O5)c5ccc(O)c(c5)-c5c(O)cc(O)cc5C(C(=O)O)NC4=O)OC(CO)C(O)C3O)OC(C)C2O)cc1 (centres unmarked) ?
Reply: > 128 µg/mL

Task item: Which MIC reading was recorded for the compound CCCCCCCCCCNC1(C)CC(OC2C(Oc3c4cc5cc3Oc3ccc(cc3Cl)C(O)C(NC(=O)C(CC(C)C)N(C)CCCCCCCCCC)C(=O)NC(CC(N)=O)C(=O)NC5C(=O)NC3C(=O)NC(C(=O)NC(C(=O)O)c5cc(O)cc(O)c5-c5cc3ccc5O)C(O)c3ccc(c(Cl)c3)O4)OC(CO)C(O)C2O)OC(C)C1O (centres unmarked) ?
Reply: > 128 µg/mL
